Sequence of the target: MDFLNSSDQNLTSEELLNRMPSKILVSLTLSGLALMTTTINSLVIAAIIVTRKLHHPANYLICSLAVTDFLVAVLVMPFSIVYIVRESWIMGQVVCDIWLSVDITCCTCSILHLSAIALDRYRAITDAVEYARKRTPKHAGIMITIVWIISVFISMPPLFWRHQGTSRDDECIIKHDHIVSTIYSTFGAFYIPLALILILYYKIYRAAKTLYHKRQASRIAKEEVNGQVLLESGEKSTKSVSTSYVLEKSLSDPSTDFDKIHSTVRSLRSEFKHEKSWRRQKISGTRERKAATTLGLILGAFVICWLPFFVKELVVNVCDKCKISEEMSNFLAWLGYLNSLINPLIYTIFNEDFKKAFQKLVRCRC
pKi: −log10 of the molar value.
QUANTITY MEASURED: pKi

SMILES REPRESENTATION | EXPERIMENTAL RESULT
Cc1ccc2c(OCCN3CCN(Cc4cccc5cccnc45)CC3)cccc2n1 | 5.70

====

MEASURED TARGET: UniProt P07550
Sequence (P07550 whole entry): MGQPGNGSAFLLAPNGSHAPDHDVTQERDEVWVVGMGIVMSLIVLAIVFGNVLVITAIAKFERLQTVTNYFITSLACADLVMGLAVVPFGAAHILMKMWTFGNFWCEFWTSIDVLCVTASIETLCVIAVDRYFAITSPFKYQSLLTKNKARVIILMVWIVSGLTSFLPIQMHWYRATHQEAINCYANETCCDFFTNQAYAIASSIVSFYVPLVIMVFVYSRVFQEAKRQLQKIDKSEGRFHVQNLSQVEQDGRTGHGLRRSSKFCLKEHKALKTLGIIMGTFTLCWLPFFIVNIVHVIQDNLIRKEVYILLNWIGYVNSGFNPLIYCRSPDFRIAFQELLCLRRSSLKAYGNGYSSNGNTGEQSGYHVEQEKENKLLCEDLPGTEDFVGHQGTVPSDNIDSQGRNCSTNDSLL
pKi: −log10 of the molar value.
QUANTITY MEASURED: pKi

SMILES REPRESENTATION | EXPERIMENTAL RESULT
Cc1ccc2c(OCCN3CCN(Cc4cccc5cccnc45)CC3)cccc2n1 | 5.70

====

Reported pKi for target or system 5-hydroxytryptamine receptor 1B (Homo sapiens), by entry.
pKi: −log10 of the molar value.

SMILES REPRESENTATION | RELATION OPERATOR | pKi
Cc1ccc2c(OCCN3CCN(Cc4cccc5cccnc45)CC3)cccc2n1 | = | 6.70
Cc1ccc2c(OCCN3CCN(Cc4ccc(O)c([N+](=O)[O-])c4)CC3)cccc2n1 | = | 6.40
Cc1ccc2c(OCCN3CCN(Cc4cccc5ncccc45)CC3)cccc2n1 | = | 6.60
Cc1ccc2c(OCCN3CCN(Cc4c(Cl)cccc4Cl)CC3)cccc2n1 | < | 5.00
Cc1ccc2c(OCCN3CCN(Cc4ccc(F)c([N+](=O)[O-])c4)CC3)cccc2n1 | = | 6.60

====

MEASURED TARGET: Sodium-dependent serotonin transporter (Rattus norvegicus, UniProt P31652)
Sequence (P31652 whole entry): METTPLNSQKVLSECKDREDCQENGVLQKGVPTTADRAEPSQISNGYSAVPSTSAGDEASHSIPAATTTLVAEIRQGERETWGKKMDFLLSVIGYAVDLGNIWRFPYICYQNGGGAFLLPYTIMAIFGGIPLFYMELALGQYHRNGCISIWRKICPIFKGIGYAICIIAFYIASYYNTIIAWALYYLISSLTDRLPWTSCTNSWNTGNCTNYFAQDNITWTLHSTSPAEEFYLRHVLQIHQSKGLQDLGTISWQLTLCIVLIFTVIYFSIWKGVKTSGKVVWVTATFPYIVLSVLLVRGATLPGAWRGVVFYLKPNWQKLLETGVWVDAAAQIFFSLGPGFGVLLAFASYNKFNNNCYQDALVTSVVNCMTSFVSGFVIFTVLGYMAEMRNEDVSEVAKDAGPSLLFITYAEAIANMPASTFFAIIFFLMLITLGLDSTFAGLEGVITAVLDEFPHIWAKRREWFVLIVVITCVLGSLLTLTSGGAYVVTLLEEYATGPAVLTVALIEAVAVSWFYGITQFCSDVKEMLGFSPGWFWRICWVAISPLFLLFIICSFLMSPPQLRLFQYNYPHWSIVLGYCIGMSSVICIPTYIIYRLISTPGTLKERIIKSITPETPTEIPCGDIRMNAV
TEST: Inhibition of [3H]5-HT binding to serotonin transporter in rat cortical synaptosomes

SMILES REPRESENTATION | MEASURED TARGET | UNIT STRING | Ki
Cc1ccc2c(OCCN3CCN(Cc4cccc5cc[nH]c45)CC3)cccc2n1 | Sodium-dependent serotonin transporter (Rattus norvegicus, UniProt P31652) | nM | 398
Cc1ccc2c(OCCN3CCN(Cc4cccc5[nH]cnc45)CC3)cccc2n1 | Sodium-dependent serotonin transporter (Rattus norvegicus, UniProt P31652) | nM | 794
Cc1ccc2c(OCCN3CCN(Cc4cccc5cccnc45)CC3)cccc2n1 | Sodium-dependent serotonin transporter (Rattus norvegicus, UniProt P31652) | nM | 316
Cc1ccc2c(OCCN3CCN(Cc4cc(Cl)ccc4Cl)CC3)cccc2n1 | Sodium-dependent serotonin transporter (Rattus norvegicus, UniProt P31652) | nM | 1260
Cc1ccc2c(OCCN3CCN(Cc4ccc(C)c([N+](=O)[O-])c4)CC3)cccc2n1 | Sodium-dependent serotonin transporter (Rattus norvegicus, UniProt P31652) | nM | 50.1
Cc1ccc2c(OCCN3CCN(Cc4ccc(Cl)c(Cl)c4)CC3)cccc2n1 | Sodium-dependent serotonin transporter (Rattus norvegicus, UniProt P31652) | nM | 501
Cc1ccc2c(OCCN3CCN(Cc4c(Cl)cccc4Cl)CC3)cccc2n1 | Sodium-dependent serotonin transporter (Rattus norvegicus, UniProt P31652) | nM | 1260
Cc1ccc2c(OCCN3CCN(Cc4ccc(F)c([N+](=O)[O-])c4)CC3)cccc2n1 | Sodium-dependent serotonin transporter (Rattus norvegicus, UniProt P31652) | nM | 316
Cc1ccc2c(OCCN3CCN(Cc4ccc(Cl)c([N+](=O)[O-])c4)CC3)cccc2n1 | Sodium-dependent serotonin transporter (Rattus norvegicus, UniProt P31652) | nM | 200
Cc1ccc2c(OCCN3CCN(Cc4ccc(O)c([N+](=O)[O-])c4)CC3)cccc2n1 | Sodium-dependent serotonin transporter (Rattus norvegicus, UniProt P31652) | nM | 1000
Cc1ccc2c(OCCN3CCN(Cc4ccc5c(c4)NC(=O)CO5)CC3)cccc2n1 | Sodium-dependent serotonin transporter (Rattus norvegicus, UniProt P31652) | nM | 25.1

====

MEASURED TARGET: D(2) dopamine receptor (Homo sapiens, UniProt P14416)
Sequence (P14416 whole entry): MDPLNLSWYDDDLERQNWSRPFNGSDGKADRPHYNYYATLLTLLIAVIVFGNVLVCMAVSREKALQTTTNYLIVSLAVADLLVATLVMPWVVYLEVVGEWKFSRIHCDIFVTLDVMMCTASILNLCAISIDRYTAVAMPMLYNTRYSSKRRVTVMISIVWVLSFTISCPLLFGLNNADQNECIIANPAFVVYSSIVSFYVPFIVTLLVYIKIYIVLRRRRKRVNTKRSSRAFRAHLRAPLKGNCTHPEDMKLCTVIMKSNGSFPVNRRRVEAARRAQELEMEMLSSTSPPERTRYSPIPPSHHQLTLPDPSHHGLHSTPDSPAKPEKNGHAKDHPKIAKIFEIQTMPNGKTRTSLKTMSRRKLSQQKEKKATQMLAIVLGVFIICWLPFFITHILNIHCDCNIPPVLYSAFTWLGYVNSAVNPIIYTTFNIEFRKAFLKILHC
TEST: Binding affinity for human dopamine receptor D2
QUANTITY MEASURED: Ki

SMILES REPRESENTATION | MEASURED TARGET | EXPERIMENTAL RESULT
Cc1ccc2c(OCCN3CCN(Cc4cccc5cccnc45)CC3)cccc2n1 | D(2) dopamine receptor (Homo sapiens, UniProt P14416) | 3.16 µM

====

# Selectivity listing for each entry below
MEASURED TARGET: Serotonin 1 receptors; 5-HT1B & 5-HT1D (Homo sapiens) (UniProt P28222+P28221)
TEST: Selectivity for human 5-hydroxytryptamine 1D receptor over 5-hydroxytryptamine 1B receptor
Type: protein assay
QUANTITY MEASURED: Selectivity

SMILES REPRESENTATION | QUANTITY MEASURED | EXPERIMENTAL RESULT
Cc1ccc2c(OCCN3CCN(Cc4cccc5ncccc45)CC3)cccc2n1 | Selectivity | 100
Cc1ccc2c(OCCN3CCN(Cc4ccc(Cl)c(Cl)c4)CC3)cccc2n1 | Selectivity | 1
Cc1ccc2c(OCCN3CCN(Cc4cccc5ncncc45)CC3)cccc2n1 | Selectivity | 126
Cc1ccc2c(OCCN3CCN(Cc4ccc5c(c4)NC(=O)CO5)CC3)cccc2n1 | Selectivity | 10
COc1ccc(CN2CCN(CCOc3cccc4nc(C)ccc34)CC2)cc1[N+](=O)[O-] | Selectivity | 16

====

MEASURED TARGET: 5-hydroxytryptamine receptor 1A (Homo sapiens, UniProt P08908)
Sequence (P08908 whole entry): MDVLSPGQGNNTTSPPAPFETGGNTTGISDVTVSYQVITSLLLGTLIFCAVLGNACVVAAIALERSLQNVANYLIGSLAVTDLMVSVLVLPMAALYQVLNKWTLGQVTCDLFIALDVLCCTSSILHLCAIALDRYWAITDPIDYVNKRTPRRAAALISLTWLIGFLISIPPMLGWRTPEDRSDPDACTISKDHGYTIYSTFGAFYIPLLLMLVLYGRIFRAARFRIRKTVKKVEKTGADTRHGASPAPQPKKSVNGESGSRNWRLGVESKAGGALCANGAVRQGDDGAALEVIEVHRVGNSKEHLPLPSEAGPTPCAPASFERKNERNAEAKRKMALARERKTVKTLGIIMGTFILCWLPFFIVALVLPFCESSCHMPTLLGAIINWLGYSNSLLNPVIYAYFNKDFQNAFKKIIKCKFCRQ
# log10(Ki) listing for each entry below
QUANTITY MEASURED: log10(Ki) (log10 of the value in nM)

SMILES REPRESENTATION | log10(Ki)
Cc1ccc2c(OCCN3CCN(Cc4ccc(C)c([N+](=O)[O-])c4)CC3)cccc2n1 | 1.60
Cc1ccc2c(OCCN3CCN(Cc4cc(Cl)ccc4Cl)CC3)cccc2n1 | 1.90
Cc1ccc2c(OCCN3CCN(Cc4cccc5cc[nH]c45)CC3)cccc2n1 | 2.60
Cc1ccc2c(OCCN3CCN(Cc4ccc(F)c([N+](=O)[O-])c4)CC3)cccc2n1 | 2.70
Cc1ccc2c(OCCN3CCN(Cc4cccc5ncccc45)CC3)cccc2n1 | 2.60
Cc1ccc2c(OCCN3CCN(Cc4cccc5cccnc45)CC3)cccc2n1 | 2.50
